Entries annotated with measured inhibition
Target Or System: DNA-3-methyladenine glycosylase (Homo sapiens);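 further: enzyme assay where MPG cuts a quenched duplex DNA oligonucleotide probe, paired with APE1 for strand incision and turnover, read as fluorescence at 594 nm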
Reported Conditions: Compound Concentration 10.0 uM, Hit No
Reported Metric: inhibition (%)

| Compound | Reported Metric | Result |
| --- | --- | --- |
| Nc1nc(CC(=O)Nc2ccc(CCNC[C@H](O)c3ccccc3)cc2)cs1 | inhibition | 5.02 |
| N[C@H](C(=O)O)c1ccc(C(=O)O)c(C(=O)O)c1 | inhibition | -6.3 |
| NCCc1cccs1 | inhibition | -5.51 |
| Nc1nc(Nc2ccccc2)nc2c1ncn2[C@@H]1O[C@H](CO)[C@@H](O)[C@H]1O | inhibition | -7.65 |
| CN1CCC(=C2c3ccccc3CC(=O)c3sccc32)CC1 | inhibition | -7.46 |
| CCCN(CCC)CCc1cccc2c1CC(=O)N2 | inhibition | -1.21 |
| COc1cccc(OC)c1-c1cc(C(=O)NC2(C(=O)O)C3CC4CC(C3)CC2C4)nn1-c1ccnc2cc(Cl)ccc12 (stereo unspecified) | inhibition | 18.6 |
| CN1CCc2cc(Cl)c(O)cc2[C@@H](c2ccccc2)C1 | inhibition | 10.9 |
| Cc1cccc(NC(=O)CN2CCC(c3ccccn3)CC2)c1 | inhibition | 7.82 |
| CCc1cc2c(c(CC)n1)CCC(=O)N2Cc1ccc(-c2ccccc2-c2nnn[nH]2)cc1 | inhibition | 6.08 |
| COc1ccc2[nH]c(I)c(CCNC(C)=O)c2c1 | inhibition | -6.47 |
| c1ccc(C2CN3CCC2CC3)cc1 (stereo unspecified) | inhibition | 3.54 |
| NS(=O)(=O)c1cncc(-c2nc(NCc3ccccn3)c3c(-c4ccccc4)cccc3n2)c1 | inhibition | 0.0701 |
| Cc1cccc([C@H]2CC[C@@H](N3CCN(c4cccnc4)CC3)CC2)c1 (mixture of isomers) | inhibition | 39 |
| CC(=O)Nc1nc2c(Oc3cc(-c4ccc(C(F)(F)F)cc4)ncn3)cccc2s1 | inhibition | 11.2 |
| N[C@@H](CCP(=O)(O)O)C(=O)O | inhibition | -0.846 |
| C[C@@H](NCCc1ccc(O)cc1)[C@@H](O)c1ccc(O)cc1 (relative stereo) | inhibition | -3.37 |
| CN(C)CCn1cc(S(=O)(=O)c2cccc(F)c2)c2cccnc21 | inhibition | 4.26 |
| Cc1nnn(-c2ccc(-c3ccc(C4(C(=O)O)CC4)cc3)cc2)c1NC(=O)O[C@H](C)c1ccccc1 | inhibition | 13.9 |
| CN1C[C@@H](NS(=O)(=O)N(C)C)C[C@@H]2c3cccc4c3c(cn4C)C[C@H]21 | inhibition | 11.2 |
| CSc1ccc(C(=O)N[C@@H]2CCCC[C@@H]2NC(=O)CNC(=O)c2cc(C(F)(F)F)ccc2NC(=O)NC(C)C)cc1 | inhibition | -1.67 |
| Clc1ccc2nsnc2c1NC1=NCCN1 | inhibition | 6.04 |
| O=C(O)c1cccc(/C=C2/C[C@@H]3[C@@H](/C=C/[C@H](O)C4CCCCC4)[C@H](O)C[C@@H]3O2)c1 | inhibition | 18.3 |
| COc1ccc(OC)c(-c2ccc(NC(=O)c3ccncc3F)cc2)c1 | inhibition | 28 |
| Nc1nc(NCCc2ccc(O)cc2)nc2nc(-c3ccco3)nn12 | inhibition | -1.9 |
| CCCCCC(O)/C=C/[C@H]1C(=O)CC(O)C1C/C=C\CCCC(=O)O (stereo partly specified) | inhibition | 15.9 |
| O=[N+]([O-])c1ccc2nc(COCc3nc4ccc([N+](=O)[O-])cc4[nH]3)[nH]c2c1 | inhibition | 18.4 |
| CCN(CC)CCCCC1CCN(CC(=O)N2c3ccccc3C(=O)Nc3cccnc32)CC1 | inhibition | -8.23 |
| COc1cc2nc(N3CCN(C(=O)c4ccco4)CC3)nc(N)c2cc1OC | inhibition | 11.1 |
| O=C(NCCNCC(O)COc1ccc(O)cc1)N1CCOCC1 (stereo unspecified) | inhibition | -2.83 |
| CC(C)C[C@H](NC(=O)[C@H](CC(N)=O)NC(=O)[C@@H]1CCCN1C(=O)[C@@H](N)C(C)C)C(=O)N1CCC[C@H]1C(=O)N[C@@H](CCC(N)=O)C(=O)N[C@@H](CCCNC(=N)N)C(=O)N[C@@H](Cc1ccccc1)C(N)=O | inhibition | 2.54 |
| CCC[C@H](Oc1cc(C)c(-n2cc(C(F)(F)F)cn2)c(C)c1)c1ccc(C(=O)NCCC(=O)O)cc1 | inhibition | -2.83 |
| CCCCC[C@H](O)/C=C/[C@H]1CCC(=O)[C@@H]1CCCCCCC(=O)O | inhibition | 6.97 |
| CC1(C)Cc2c(CN3CCC4(CC3)CCN(C(=O)c3ccc(N)cn3)CC4)cccc2O1 | inhibition | 8.62 |
| Clc1cccc(Cl)c1NC1=NCCN1 | inhibition | -5.72 |
| NCCc1c[nH]c2ccc(O)cc12 | inhibition | 21.8 |
| CC(COc1ccccc1)N(CCCl)Cc1ccccc1 (stereo unspecified) | inhibition | 8.43 |
| FC(F)(F)c1ccccc1-c1cc(C(F)(F)F)c2[nH]c(C3=NOC4(CCCCC4)C3)nc2c1 | inhibition | 0.733 |
| COc1cccc(-c2c(C)n(Cc3c(F)cccc3C(F)(F)F)c(=O)n(C[C@H](NCCCC(=O)O)c3ccccc3)c2=O)c1F | inhibition | 1.07 |
| C[C@@H](OC[C@@]1(c2ccccc2)CC[C@]2(CCC(=O)N2)CN1)c1cc(C(F)(F)F)cc(C(F)(F)F)c1 | inhibition | -7.57 |
| FC(F)(F)c1ccc(N2CCNCC2)nc1Cl | inhibition | 8.14 |
